# Test system: Platelet
# ASSAY_INFO: Ratio of IC50 for platelet-activating factor-induced pig platelet aggregation to IC50 for ADP-induced pig platelet aggregation
# Format: functional, Sus scrofa
QUANTITY_MEASURED: Ratio IC50
Form rule: numeric answer, no unit written next to it.

Example compounds with recorded Ratio IC50:
{"GIVEN_SMILES": "NC(=O)C[C@H](N)C(=O)N1Cc2[nH]c3ccccc3c2C[C@H]1C(=O)O", "TARGET_OF_ASSAY": "Platelet", "EXPERIMENTAL_VALUE": 1.8}
{"GIVEN_SMILES": "N[C@@H](CS)C(=O)N1Cc2[nH]c3ccccc3c2C[C@H]1C(=O)O", "TARGET_OF_ASSAY": "Platelet", "EXPERIMENTAL_VALUE": 2.1}
{"GIVEN_SMILES": "N[C@@H](CO)C(=O)N1Cc2[nH]c3ccccc3c2C[C@H]1C(=O)O", "TARGET_OF_ASSAY": "Platelet", "EXPERIMENTAL_VALUE": 1.9}
{"GIVEN_SMILES": "N[C@@H](CCC(=O)O)C(=O)N1Cc2[nH]c3ccccc3c2C[C@H]1C(=O)O", "TARGET_OF_ASSAY": "Platelet", "EXPERIMENTAL_VALUE": 1.4}

From here, focus on the item given below.
stdin: So what's the measured Ratio IC50 for this one? "N=C(N)NCCC[C@H](N)C(=O)N1Cc2[nH]c3ccccc3c2C[C@H]1C(=O)O"
stdout: 1.9

---

Catalogue of molecules with associated Ratio IC50
# Test system: Platelet
# ASSAY_INFO: Ratio of IC50 for thrombin-induced pig platelet aggregation to IC50 for ADP-induced pig platelet aggregation
# Type: functional, Sus scrofa
Form rule: numeric answer, no unit written next to it.

Example molecules with recorded Ratio IC50:
{"GIVEN_SMILES": "CC(C)[C@H](N)C(=O)N1Cc2[nH]c3ccccc3c2C[C@H]1C(=O)O", "Ratio IC50": 4.2}
{"GIVEN_SMILES": "N[C@@H](CS)C(=O)N1Cc2[nH]c3ccccc3c2C[C@H]1C(=O)O", "Ratio IC50": 3.9}
{"GIVEN_SMILES": "NC(=O)CC[C@H](N)C(=O)N1Cc2[nH]c3ccccc3c2C[C@H]1C(=O)O", "Ratio IC50": 3.9}
{"GIVEN_SMILES": "CC[C@H](C)[C@H](N)C(=O)N1Cc2[nH]c3ccccc3c2C[C@H]1C(=O)O", "Ratio IC50": 4.1}
{"GIVEN_SMILES": "N[C@@H](Cc1ccccc1)C(=O)N1Cc2[nH]c3ccccc3c2C[C@H]1C(=O)O", "Ratio IC50": 3.1}
{"GIVEN_SMILES": "NC(=O)C[C@H](N)C(=O)N1Cc2[nH]c3ccccc3c2C[C@H]1C(=O)O", "Ratio IC50": 3.3}

stdin: So what's the measured Ratio IC50 for this one? "CC(C)C[C@H](N)C(=O)N1Cc2[nH]c3ccccc3c2C[C@H]1C(=O)O"
stdout: 3.9

stdin: So what's the measured Ratio IC50 for this one? "N[C@@H](Cc1cnc[nH]1)C(=O)N1Cc2[nH]c3ccccc3c2C[C@H]1C(=O)O"
stdout: 4

stdin: So what's the measured Ratio IC50 for this one? "N=C(N)NCCC[C@H](N)C(=O)N1Cc2[nH]c3ccccc3c2C[C@H]1C(=O)O"
stdout: 3.1

All figures here come from ChEMBL document CHEMBL1156185.
